Measured ELISA data of individual entries
Target: T1, CD81 (UniProt P60033 1-236, limits assumed)
T1 construct: whole, on cells; also called CD81 receptor
T1 sequence (looked up): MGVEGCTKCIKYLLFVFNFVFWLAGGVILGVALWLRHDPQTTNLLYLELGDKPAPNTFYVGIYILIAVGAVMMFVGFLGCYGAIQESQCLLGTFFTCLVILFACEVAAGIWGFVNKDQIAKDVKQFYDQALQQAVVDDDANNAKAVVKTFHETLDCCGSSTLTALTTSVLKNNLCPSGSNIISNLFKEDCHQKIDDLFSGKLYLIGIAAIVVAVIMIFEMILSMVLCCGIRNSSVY
Assay: cell ELISA;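 also: antibody binding to HuH7 cells expressing CD81 versus a CD81-negative HuH7 control line, bound antibody detected by secondary reagent, absorbance at 450 nm with 620 nm reference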
The reply should be a number, written without any unit.

| binder | ELISA data |
| --- | --- |
| CD81K04 HC JA_GG-13-hVH_1_69 / LC CD81K04 (antibody, V domains shown, human constant region) VH: QVQLVQSGAEVKKPGSSVKVSCKASGGTFSSSWMNWVRQAPGQGLEWMGRIYSGDGDAIYAQKFQGRVTITADESTSTAYMELSSLRSEDTAVYYCAREGKTGDLLLRSWGQGTLVTVSS VL: DIVLTQSPASLSVSLGQRATISCRASKSVSTSIYSYMHWYQQKPGQPPKLLIKYASYLESGVPARFSGSGSGTDFTLNIHPVEEEDAATYYCEHSREFPFTFGTGTKLEIK | 0.564 |

Query string: Request the reported ELISA data associated with CD81K04 HC GG-03-hVH_1_69 / LC JA_GG-08-hVK_4_1 (antibody, V domains shown, human constant region) VH: QVQLVQSGAEVKKPGSSVKVSCKASGYTFSSSWMNWVRQAPGQGLEWMGRIYSGDGDAIYAQKFQGRVTITADESTSTAYMELSSLRSEDTAVYYCAREGKTGDLLLRSWGQGTLVTVSS VL: DIVMTQSPDSLAVSLGERATINCKSSKSVSTSIYSYMHWYQQKPGQPPKLLIKYASYLESGVPDRFSGSGSGTDFTLTISSLQAEDVAVYYCEHSREFPFTFGQGTKLEIK
Result string: 0.815

Query string: Request the reported ELISA data associated with CD81K04 HC JA_GG-14-hVH_1_3 / LC JA_GG-07-hVK_7_3 (antibody, V domains shown, human constant region) VH: QVQLVQSGAEVKKPGASVKVSCKASGYTFSSSWMNWVRQAPGQGLEWMGRIYSGDGDAIYNGKFKGRATITADTSASTAYMELSSLRSEDTAVYYCAREGKTGDLLLRSWGQGTLVTVSS VL: DIVLTQSPASLAVSPGQRATITCRASKSVSTSIYSYMHWYQQKPGQPPKLLIKYASNKDTGVPARFSGSGSGTDFTLTINPVEANDAANYYCLHSREFPYTFGQGTKLEIK
Result string: 0.154

Query string: Request the reported ELISA data associated with CD81K04 HC K04_JA_GG-17-hVH_1_3 / LC GG-04-hVK_4_1 (antibody, V domains shown, human constant region) VH: QVQLVQSGAEVKKPGASVKVSCKASGYTFSSSWMNWVRQAPGQRLEWMGRIYSGDGDTIYSQKFQGRVTITADTSASTAYMELSSLRSEDTAVYYCAREGKTGDLLLRSWGQGTLVTVSS VL: DIVMTQSPDSLAVSLGERATINCKSSKSVSTSIYSYLAWYQQKPGQPPKLLIYYASTRESGVPDRFSGSGSGTDFTLTISSLQAEDVAVYYCQHSREFPYTFGQGTKLEIK
Result string: 0.189

Query string: Request the reported ELISA data associated with CD81K04 HC JA_GG-14-hVH_1_3 / LC GG-05-hVK_3_11 (antibody, V domains shown, human constant region) VH: QVQLVQSGAEVKKPGASVKVSCKASGYTFSSSWMNWVRQAPGQGLEWMGRIYSGDGDAIYNGKFKGRATITADTSASTAYMELSSLRSEDTAVYYCAREGKTGDLLLRSWGQGTLVTVSS VL: EIVLTQSPATLSLSPGERATLSCRASKSVSTSIYSYLHWYQQKPGQAPRLLIYYASNRETGIPARFSGSGSGTDFTLTISSLEPEDFAVYYCQHSREFPFTFGQGTKLEIK
Result string: 0.696

Query string: Request the reported ELISA data associated with CD81K04 HC JA_GG-13-hVH_1_69 / LC JA_GG-07-hVK_7_3 (antibody, V domains shown, human constant region) VH: QVQLVQSGAEVKKPGSSVKVSCKASGGTFSSSWMNWVRQAPGQGLEWMGRIYSGDGDAIYAQKFQGRVTITADESTSTAYMELSSLRSEDTAVYYCAREGKTGDLLLRSWGQGTLVTVSS VL: DIVLTQSPASLAVSPGQRATITCRASKSVSTSIYSYMHWYQQKPGQPPKLLIKYASNKDTGVPARFSGSGSGTDFTLTINPVEANDAANYYCLHSREFPYTFGQGTKLEIK
Result string: 0.087

Query string: Request the reported ELISA data associated with CD81K04 HC GG-06-hVH_1_69 / LC CD81K04 (antibody, V domains shown, human constant region) VH: QVQLVQSGAEVKKPGSSVKVSCKASGYTFSSSWMCWVRQAPGQGLEWMGCIYSGDGDAIYNQKFQGRVTITADESTSTAYMELSSLRSEDTAVYYCAREGKTGDLLLRSWGQGTLVTVSS VL: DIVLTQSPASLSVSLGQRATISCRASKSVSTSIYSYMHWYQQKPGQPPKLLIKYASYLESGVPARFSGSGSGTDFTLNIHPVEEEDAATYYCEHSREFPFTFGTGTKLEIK
Result string: 0.342

Query string: Request the reported ELISA data associated with CD81K04 HC GG-05-hVH_1_18 / LC GG-04-hVK_4_1 (antibody, V domains shown, human constant region) VH: QVQLVQSGAEVKKPGASVKVSCKASGYTFSSSWMNWVRQAPGQGLEWMGRIYSGDGDAIYAQKLQGRVTMTTDTSTSTAYMELRSLRSDDTAVYYCAREGKTGDLLLRSWGQGTLVTVSS VL: DIVMTQSPDSLAVSLGERATINCKSSKSVSTSIYSYLAWYQQKPGQPPKLLIYYASTRESGVPDRFSGSGSGTDFTLTISSLQAEDVAVYYCQHSREFPYTFGQGTKLEIK
Result string: 0.187

Query string: Request the reported ELISA data associated with CD81K04 HC JA_GG-14-hVH_1_69 / LC GG-02-hVK_4_1 (antibody, V domains shown, human constant region) VH: QVQLVQSGAEVKKPGSSVKVSCKASGYTFSSSWMNWVRQAPGQGLEWMGRIYSGDGDAIYNGKFKGKATITADESTSTAYMELSSLRSEDTAVYYCAREGKTGDLLLRSWGQGTLVTVSS VL: DIVMTQSPDSLAVSLGERATINCKSSKSVSTSIYSYMHWYQQKPGQPPKLLIYYASYRESGVPDRFSGSGSGTDFTLTISSLQAEDVAVYYCQHSREFPFTFGQGTKLEIK
Result string: 0.235

Query string: Request the reported ELISA data associated with CD81K04 HC K04_JA-13-hVH_1_3 / LC GG-06-hVK_1_39 (antibody, V domains shown, human constant region) VH: QVQLVQSGAEVKKPGASVKVSCKASGYTFSSSWMNWVRQAPGQRLEWMGRIYSGDGDAIYNGKFKGRVTITRDTSASTAYMELSSLRSEDTAVYYCAREGKTGDLLLRSWGQGTLVTVSS VL: DIQMTQSPSSLSASVGDRVTITCRASKSVSTSIYSYLNWYQQKPGKAPKLLIYYASYLQSGVPSRFSGSGSGTDFTLTISSLQPEDFATYYCQHSREFPYTFGQGTKLEIK
Result string: 0.064
